- Experimental System: DNA topoisomerase 2-alpha (Homo sapiens) (UniProt P11388)
- Sequence (P11388 whole entry): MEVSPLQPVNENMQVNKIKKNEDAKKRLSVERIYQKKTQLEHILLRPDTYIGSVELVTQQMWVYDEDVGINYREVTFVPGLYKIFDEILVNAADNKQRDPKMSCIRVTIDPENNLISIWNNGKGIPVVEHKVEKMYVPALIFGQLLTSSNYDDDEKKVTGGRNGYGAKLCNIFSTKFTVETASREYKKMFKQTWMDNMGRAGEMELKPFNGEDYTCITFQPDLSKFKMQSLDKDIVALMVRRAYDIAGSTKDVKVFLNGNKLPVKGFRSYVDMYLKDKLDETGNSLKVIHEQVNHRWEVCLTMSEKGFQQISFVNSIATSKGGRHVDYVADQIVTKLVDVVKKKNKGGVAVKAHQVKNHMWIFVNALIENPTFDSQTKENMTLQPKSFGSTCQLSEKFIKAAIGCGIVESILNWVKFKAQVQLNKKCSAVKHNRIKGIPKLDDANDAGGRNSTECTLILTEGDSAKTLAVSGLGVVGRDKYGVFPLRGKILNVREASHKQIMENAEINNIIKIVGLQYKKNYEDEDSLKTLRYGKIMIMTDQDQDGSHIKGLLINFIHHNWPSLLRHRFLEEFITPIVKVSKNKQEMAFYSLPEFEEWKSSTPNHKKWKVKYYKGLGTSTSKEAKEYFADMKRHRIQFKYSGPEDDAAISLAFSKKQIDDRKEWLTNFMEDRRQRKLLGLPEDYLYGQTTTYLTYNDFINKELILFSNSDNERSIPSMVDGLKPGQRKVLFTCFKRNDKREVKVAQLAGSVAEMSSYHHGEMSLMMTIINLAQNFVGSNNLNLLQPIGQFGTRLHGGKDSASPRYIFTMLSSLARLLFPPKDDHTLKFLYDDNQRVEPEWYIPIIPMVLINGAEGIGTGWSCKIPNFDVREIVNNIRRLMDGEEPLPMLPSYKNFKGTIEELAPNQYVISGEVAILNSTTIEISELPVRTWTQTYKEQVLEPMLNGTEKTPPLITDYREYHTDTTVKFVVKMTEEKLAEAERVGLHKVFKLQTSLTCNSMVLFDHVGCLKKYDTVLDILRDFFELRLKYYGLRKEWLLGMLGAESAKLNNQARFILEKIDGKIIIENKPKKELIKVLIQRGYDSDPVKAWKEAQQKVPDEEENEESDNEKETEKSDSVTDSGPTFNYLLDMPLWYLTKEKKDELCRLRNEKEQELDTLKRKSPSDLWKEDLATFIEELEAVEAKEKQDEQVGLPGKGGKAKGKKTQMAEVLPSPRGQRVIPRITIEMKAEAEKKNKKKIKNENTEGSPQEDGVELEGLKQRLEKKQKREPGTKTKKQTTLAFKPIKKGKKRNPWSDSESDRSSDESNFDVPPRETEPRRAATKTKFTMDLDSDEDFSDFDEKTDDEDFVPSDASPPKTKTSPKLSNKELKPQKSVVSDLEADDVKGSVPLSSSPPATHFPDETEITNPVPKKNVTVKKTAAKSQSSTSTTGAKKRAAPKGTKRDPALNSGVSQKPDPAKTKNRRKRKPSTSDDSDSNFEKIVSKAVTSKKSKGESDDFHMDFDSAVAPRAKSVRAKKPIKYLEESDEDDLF
- Protocol: Inhibition of recombinant human topoisomerase-2alpha expressed in Saccharomyces cerevisiae assessed as increase in single-stranded DNA cleavage at 25 uM using supercoiled pBR322 DNA as substrate incubated for 6 mins measured after 30 mins by ethidium bromide staining based agarose gel electrophoresis method relative to etoposide
Measured Quantity: fold change (FC)
// no unit string in output, number only

For the compound shown here, "COc1cc([C@@H]2c3cc4c(cc3[C@@H](NC(=O)CNCCCNCCNCCCN)[C@H]3COC(=O)[C@H]23)OCO4)cc(OC)c1O" , give the reported fold change (FC).
1.06

What do you have for "CNCCCNCCCCNCCCNCC(=O)N[C@@H]1c2cc3c(cc2[C@@H](c2cc(OC)c(O)c(OC)c2)[C@H]2C(=O)OC[C@@H]21)OCO3" ?
1.37

What do you have for "COc1cc([C@@H]2c3cc4c(cc3[C@@H](NC(=O)CNCCCOCCCCOCCCN)[C@H]3COC(=O)[C@H]23)OCO4)cc(OC)c1O" ?
0.87

What do you have for "COc1cc([C@@H]2c3cc4c(cc3[C@@H](NC(=O)CNCCCNCCCCNCCCN)[C@H]3COC(=O)[C@H]23)OCO4)cc(OC)c1O" ?
0.92

What do you have for "COc1cc([C@@H]2c3cc4c(cc3[C@@H](NC(=O)CNCCCNCCCNCCCN)[C@H]3COC(=O)[C@H]23)OCO4)cc(OC)c1O" ?
1.17

What do you have for "COc1cc([C@@H]2c3cc4c(cc3[C@@H](NC(=O)CNCCCNCCCCN)[C@H]3COC(=O)[C@H]23)OCO4)cc(OC)c1O" ?
1.14

====

Exercise: for every item that follows, state its recorded fold change (FC).
- Experimental System: DNA topoisomerase 2-alpha (Homo sapiens)
- Protocol: Inhibition of recombinant human topoisomerase-2alpha expressed in Saccharomyces cerevisiae assessed as increase in total DNA cleavage at 25 uM using supercoiled pBR322 DNA as substrate incubated for 6 mins measured after 30 mins by ethidium bromide staining based agarose gel electrophoresis method relative to etoposide
// no unit string in output, number only

For the compound shown here, "COc1cc([C@@H]2c3cc4c(cc3[C@@H](NC(=O)CNCCCOCCCCOCCCN)[C@H]3COC(=O)[C@H]23)OCO4)cc(OC)c1O" , give the reported fold change (FC).
0.88

What do you have for "COc1cc([C@@H]2c3cc4c(cc3[C@@H](NC(=O)CNCCCNCCCCNCCCN)[C@H]3COC(=O)[C@H]23)OCO4)cc(OC)c1O" ?
1.49

What do you have for "COc1cc([C@@H]2c3cc4c(cc3[C@@H](NC(=O)CNCCCNCCNCCCN)[C@H]3COC(=O)[C@H]23)OCO4)cc(OC)c1O" ?
1.38

What do you have for "CNCCCNCCCCNCCCNCC(=O)N[C@@H]1c2cc3c(cc2[C@@H](c2cc(OC)c(O)c(OC)c2)[C@H]2C(=O)OC[C@@H]21)OCO3" ?
1.66

What do you have for "COc1cc([C@@H]2c3cc4c(cc3[C@@H](NC(=O)CNCCCNCCCCN)[C@H]3COC(=O)[C@H]23)OCO4)cc(OC)c1O" ?
1.28

What do you have for "COc1cc([C@@H]2c3cc4c(cc3[C@@H](NC(=O)CNCCCNCCCNCCCN)[C@H]3COC(=O)[C@H]23)OCO4)cc(OC)c1O" ?
1.52
